Assay: Viability qHTS for spleen associated tyrosine kinase inhibitor (SYKi) drug resistant MV4-11 cells (AID 1963824); note: nearly all actives have a fitted effect of over 35% in size; note: potency is the fitted concentration of half-maximal effect
Condition parameters: SYKi-resistant MV4-11 viability, CellTiter-Glo, 72 h; series mostly up to 45 µM
Inconclusive results are not listed. Active and inactive are the calls of the source. Calls come from the whole dose curve; as a rule, active = well fitted cell-killing curve with a large enough effect; inconclusive = small, poorly fitted or top-dose-only effect, or effect the other way; inactive = no such curve, though single readings can be large or run the other way.
Outcome measure: Potency

Solved entries (count: 4):
| Compound | Potency |
| --- | --- |
| COc1ccccc1-n1c(SCC(=O)Nc2nc3ccc(C)cc3s2)nc2c(c1=O)SCC2 | inactive |
| O=C(O[C@H]1[C@@H]2C=CO[C@@H](O[C@@H]3O[C@H](CO)[C@@H](O)[C@H](O)[C@H]3O)[C@@H]2[C@@]2(CO)O[C@@H]12)c1ccccc1 | inactive |
| O=c1cc(NCCCN[C@@H]2CCOc3c(Br)cc(Br)cc32)[nH]c2ccsc12 | 7.31 µM (active) |
| CCOC(=O)C(O)c1ccccc1 (stereo not given) | inactive |

O=C(O)CCCCC(CCSCc1ccccc1)SCc1ccccc1 (stereo not given) yielded Potency of 13.2 µM (active)

====

Assay: Quantitative highthroughput screen to assess conditional lethalithy of NOMO1 cells grown in RPMI1640 with dialyzed fetal bovine serum (RPMI+ds) (AID 1963877); note: nearly all actives have a fitted effect of over 30% in size;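 for viability: 100% = DMSO control wells and 0% = empty wells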
Condition parameters: NOMO1 in RPMI+dialyzed FBS viability, ATP luminescence, 48 h; series mostly up to 45.8 µM
Records with an inconclusive call do not appear. Activity calls are given as the source filed them. Calls follow the shape of the dose curve; as a rule, active = well fitted cell-killing curve with a large enough effect; inconclusive = small, poorly fitted or top-dose-only effect; inactive = flat fitted curve, though single readings scatter.
// allowed return values: 1 (active), -1 (inactive)

Some solved cases for reference:
| Compound | Group label |
| --- | --- |
| Cc1cccc(Nc2nc(-c3ccncc3)cs2)c1 | -1 |
| Cc1nnc(C(=O)NC(C)(C)c2nc(C(=O)NCc3ccc(F)cc3)c(O)c(=O)n2C)o1 | -1 |
| Cc1ccnc2c1NC(=O)c1cccnc1N2C1CC1 | 1 |

Req: Please state the recorded outcome for this compound: "C[C@@H]1COC(Nc2ccc3ncnc(Nc4ccc(OCc5nccs5)c(Cl)c4)c3c2)=N1"
Resp: -1

Req: Please state the recorded outcome for this compound: C[C@]12CCC3c4ccc(O)cc4CCC3C1CCC2=O (stereo not given in full)
Resp: -1

Req: Please state the recorded outcome for this compound: CC1(O)CC(c2nc(-c3ccc4ccc(-c5ccccc5)nc4c3)c3c(N)nccn23)C1 (stereo not given)
Resp: 1

Req: Please state the recorded outcome for this compound: "O=C(O)CCNc1cc(N2CCc3ccccc3CC2)nc(-c2ccccn2)n1"
Resp: -1

Req: Please state the recorded outcome for this compound: CC(NCc1ccc2c(c1)nc(NC(=O)c1ccc(-c3cn[nH]c3)s1)n2CC(C)(C)O)C(C)(C)C (stereo not given)
Resp: 1

====

Assay: Viability qHTS for spleen associated tyrosine kinase inhibitor (SYKi) drug resistant MV4-11 cells (AID 1963824); note: nearly all actives have a fitted effect of over 35% in size
Condition parameters: SYKi-resistant MV4-11 viability, CellTiter-Glo, 72 h; series mostly up to 45 µM
Records with an inconclusive call do not appear. Calls of active or inactive are those of the source. The call rests on the fitted dose curve; in most records, active means well fitted cell-killing curve with a large enough effect; inconclusive means small, poorly fitted or top-dose-only effect, or effect the other way; inactive means no such curve, though single readings can be large or run the other way.
// allowed return values: active, inactive

Some solved cases for reference:
| Compound string | Group label |
| --- | --- |
| CC(C)(C)NC(=O)[C@@H]1CN(Cc2cccnc2)CCN1C[C@@H](O)C[C@@H](Cc1ccccc1)C(=O)N[C@H]1c2ccccc2C[C@H]1O | inactive |
| CC/C=C\[C@H](O)[C@H](O)C1=C(C)C(=O)[C@]2(O1)C(=O)N[C@@](OC)(C(=O)c1ccccc1)[C@@H]2O | inactive |
| C/C=C(/C)C(=O)O[C@H]1C=C(CO)C(=O)[C@H](OC(=O)/C(C)=C/CO)[C@H]1C(C)C | active |
| CCCN(CCC)CCc1cccc2c1CC(=O)N2 | inactive |
| O=C(NCCN1CCOCC1)c1cc2c(Oc3ccc(NC(=O)C4(C(=O)Nc5ccc(F)cc5)CC4)cc3)ccnc2[nH]1 | active |
| CNS(=O)(=O)Nc1nccc(Cc2c(C)c3ccc(Oc4ncccn4)cc3oc2=O)c1F | active |

Req: Please state the recorded outcome for this compound: "CCCCOC(=O)c1ccc(O)cc1"
Resp: inactive

Req: Please state the recorded outcome for this compound: "COC(=O)Nc1nc2ccc(Sc3ccccc3)cc2[nH]1"
Resp: active

Req: Please state the recorded outcome for this compound: "CCN(C(=O)c1ccccc1OC)c1cc2c(cc1N1CCNC[C@H]1C)n(C)c(=O)n2C"
Resp: inactive

This collection of values is drawn from PubChem BioAssay (NCATS).
